Assayed system: IRAK4 (Homo sapiens)
Sequence (Q9NWZ3 whole entry, species assumed): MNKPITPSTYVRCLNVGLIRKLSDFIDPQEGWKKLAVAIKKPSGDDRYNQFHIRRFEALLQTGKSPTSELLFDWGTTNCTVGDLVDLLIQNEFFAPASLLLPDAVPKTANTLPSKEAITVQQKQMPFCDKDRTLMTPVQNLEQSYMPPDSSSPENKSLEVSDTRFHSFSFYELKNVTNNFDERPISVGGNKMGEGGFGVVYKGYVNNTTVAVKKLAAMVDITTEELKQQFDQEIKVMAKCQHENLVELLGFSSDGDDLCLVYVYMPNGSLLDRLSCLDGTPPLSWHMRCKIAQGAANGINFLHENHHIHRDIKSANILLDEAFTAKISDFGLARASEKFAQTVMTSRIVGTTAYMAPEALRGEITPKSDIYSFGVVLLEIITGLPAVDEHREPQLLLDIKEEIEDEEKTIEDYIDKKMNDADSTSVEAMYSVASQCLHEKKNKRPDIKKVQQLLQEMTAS
Assay protocol: Hibit fluorescence detection of proteolysis (IRAK4-HiBiT in HEK293T cells)
Type: cell-based
Set-up: host or cells: HEK293T (ATCC)
Condition label: HEK-293T
Here, each record is paired with measured Dmax data.

Recorded results for 3 molecules are shown here.
Molecule	Result
Cn1c(=O)n(C2CCC(=O)NC2=O)c2cccc(N3CCC(N4CCN(C[C@H]5CC[C@H](n6cc(-n7cc(-c8cnn9ccc(N%10CC%11(COC%11)C%10)nc89)nn7)c(C(F)F)n6)CC5)CC4)CC3)c21 (stereo partly drawn) [Compound 224]	> 80%
Cn1c(=O)n(C2CCC(=O)NC2=O)c2cccc(N3CC4CN(C[C@H]5CC[C@H](n6cc(-n7cc(-c8ccc9cc(C(N)=O)cnn89)nn7)c(C(F)F)n6)CC5)CC4C3)c21 (stereo partly drawn) [Example 81]	> 80%
C[C@H](C#Cc1cccc2c1n(C)c(=O)n2C1CCC(=O)NC1=O)OC1CCN(C[C@H]2CC[C@H](n3cc(-n4cc(-c5cnn6ccc(N7CCOCC7)nc56)nn4)c(C(F)F)n3)CC2)CC1 (stereo partly drawn) [Example 1]	< 60%

Data request: Could you share which Dmax value was measured for CN(C[C@H]1CC[C@H](n2cc(-n3cc(-c4cnn5ccc(N6CCOCC6)nc45)nn3)c(C(F)F)n2)CC1)C1CCC2(CC1)CC(Nc1cccc3c1n(C)c(=O)n3C1CCC(=O)NC1=O)C2 (stereo partly drawn) [Example 23] ?
Data returned: > 80%

Data request: Could you share which Dmax value was measured for Cn1c(=O)n(C2CCC(=O)NC2=O)c2cccc(C(=O)N3CCC(NC[C@H]4CC[C@H](n5cc(-n6cc(-c7cnn8ccc(N9CCOCC9)nc78)nn6)c(C(F)F)n5)CC4)CC3)c21 (stereo partly drawn) [Example 29] ?
Data returned: 70 to 80%

Data request: Could you share which Dmax value was measured for Cn1c(=O)n(C2CCC(=O)NC2=O)c2cccc(C3CN(C4CN(C[C@H]5CC[C@H](n6cc(-n7cc(-c8ccc9cc(C(N)=O)cnn89)nn7)c(C(F)F)n6)CC5)C4)C3)c21 (stereo partly drawn) [Example 83] ?
Data returned: 70 to 80%
